System: DLD-1
measurement-description: NCI tumour cell line growth inhibition, 48 h
Activity calls are given as the source filed them. No stated cut-off is given here; in the data, active = GI50 up to about 1.1 µM and inactive = higher.
Collected GI50 values appear next to each entry.
readout: GI50

| compound | reported-result |
| --- | --- |
| O=C1c2ccccc2C(=O)c2c(O)c(O)cc(O)c21 [PURPURIN] | 31.5 µM (inactive) |
| C=C1CCC2[C@@H](CCC3[C@]2(C)CCC[C@]3(C)C(=O)OC)[C@@H]1CC=O (stereo partly specified) | 33.6 µM (inactive) |
| CNC(=O)N(C)/N=N/CCCl | > 100 µM (inactive) |
| CC1OC(=O)C(C(C)C)NC(=O)C(C(C)C)OC(=O)C(C(C)C)NC(=O)C(C)OC(=O)C(C(C)C)NC(=O)C(C(C)C)OC(=O)C(C(C)C)NC(=O)C(C)OC(=O)C(C(C)C)NC(=O)C(C(C)C)OC(=O)C(C(C)C)NC1=O (stereo unspecified) | 0.00326 µM (active) |
| CC(/C=C/c1ncccc1OCCCCCC(=O)O)=N\NC1=NCCN1 | > 100 µM (inactive) |
| COC(=O)C1=C(C(=O)OC)C2(C(=O)OC)OC1(OC)C(C1(C(=O)OC)C(C(=O)OC)=C1C(=O)OC)=C2C(=O)OC (stereo unspecified) | > 100 µM (inactive) |
| C=CC1=CSNN1 | > 100 µM (inactive) |
| O=C(O)c1cc2c3ccccc3nc-2c[nH]1 | > 100 µM (inactive) |
| CCOC(=O)C1(CC)CCCCC(=O)N1 (stereo unspecified) | > 100 µM (inactive) |
| COc1ccc(/C=C2\CCC(CN(C)C)C2=O)cc1 (stereo unspecified) | 3.62 µM (inactive) |
| COc1cc(C2C3=C(COC3=O)Oc3cc4c(cc32)OCO4)cc(OC)c1OC (stereo unspecified) | 0.022 µM (active) |

###

Test system: SF-268
measurement-description: NCI tumour cell line growth inhibition, 48 h
Calls of active or inactive are those of the source. Cut-off read from the data, not from the text of the source: active = GI50 up to about 1.1 µM and inactive = higher.
Collected GI50 values appear next to each entry.

| compound | GI50 |
| --- | --- |
| Cc1cc(=O)nc(S(=O)(=O)NC(=O)Nc2cccc(Cl)c2)[nH]1 | > 100 µM (inactive) |
| C=CC1C2=C(C(=O)NCC2)C2OC(O)C3=C(CCNC3=O)C2C1C (stereo not given) | > 100 µM (inactive) |
| O[C@@H]1C[C@H]2N3CC[C@@]2(c2cc4c(cc2C3)OCO4)[C@H]2O[C@@H]12 | > 100 µM (inactive) |
| C=C1CCC2[C@@H](CCC3[C@]2(C)CCC[C@]3(C)C(=O)OC)[C@@H]1CC=O (stereo not given in full) | 34.6 µM (inactive) |
| COc1cc2c(c(OC)c1OC)-c1ccc(SC)c(=O)cc1[C@@H](O)CC2 | 0.00128 µM (active) |
| CC1=C(C(=O)Nc2ccccc2)C(c2ccc(C)o2)C(C#N)=C(SCc2ccccc2)N1 (stereo not given) | > 100 µM (inactive) |
| CC(C)(C)OC(=O)N1CCC[C@H]1CSC[C@@H]1CCCN1C(=O)OC(C)(C)C | 39.4 µM (inactive) |
| Cc1ccc(NC(=O)CC/C(CC(=O)C(C)(C)C)=N/NC(=O)C(N)=O)cc1C | > 100 µM (inactive) |
| O=C1C(Cl)=C(Nc2ccc(S(=O)(=O)Nc3ccccn3)cc2)C(=O)c2ccccc21 | 8.2 µM (inactive) |
| Fc1ccc(F)c(/C=N/C23CC4CC(CC(C4)C2)C3)c1 | > 10 µM (inactive) |

###

Tested on: NCI/ADR-RES
measurement-description: NCI tumour cell line growth inhibition, 48 h
Activity calls are given as the source filed them. No stated cut-off is given here; in the data, active = GI50 up to about 1.1 µM and inactive = higher.
Classes used: 1 = active, 0 = inactive

| compound | class-assignment |
| --- | --- |
| COc1cc2c(cc1OCCN1CCN(CCOc3cc4c(cc3OC)C(=O)N3CCC[C@H]3C=N4)CC1)N=C[C@@H]1CCCN1C2=O | 0 |
| COC1CC(OC2C(C)OC(OC3C(C)OC(OC4C(C)OC(O[C@H]5CC[C@@]6(C)C(=CC[C@]7(O)[C@@H]6C[C@@H](OC(=O)/C=C/c6ccccc6)[C@@]6(C)[C@]7(O)CC[C@@]6(O)C(C)=O)C5)CC4OC)CC3OC)CC2OC)OC(C)C1O (stereo partly specified) | 0 |
| CSc1c(C#N)c(O)n(-c2ccc(Cl)cc2)c(=O)c1C(C)=O | 0 |
| CC(=O)O[C@@H]1[C@H]2[C@@H](OC(=O)c3ccccc3)[C@@H](C)C[C@]2(O)[C@H](OC(C)=O)[C@@]2(C)[C@@H]3CC(C)(C)C(=O)[C@]3(OC(C)=O)C[C@@]12C | 0 |
| CN1CSC(=S)N(c2c3ccccc3nc3ccc(Br)cc23)C1 | 0 |
| c1ccc(N2N=C3N(c4ccccc4)C2N3c2ccccc2)cc1 | 0 |
| Cc1cc2oc(=N)c(C#N)c(C)c2cc1C | 0 |
| O=[N+]([O-])/C(C(Cl)=C(Cl)Cl)=C(/Cl)Sc1ccccc1 | 1 |
| Clc1cccc(Cl)c1C1ON=C(c2ccccc2)N1C12CC3CC(CC(C3)C1)C2 (stereo unspecified) | 0 |
| Cc1nc2c(O)cc3c4c(=O)n(C)c(=O)n(C)c4n(Cc4ccccc4)c3c2nc1C | 0 |
| [N-]=[N+]=NC1=C(c2ccccn2)C(=O)c2cccc3cccc1c23 | 0 |
| Fc1ccc2nc3n(c2c1)C(c1c(F)cccc1F)SC3 (stereo unspecified) | 0 |
| COc1ccc(C(=O)N(C(=S)OCCOc2ccccc2)c2ccccc2)cc1 | 0 |
| Cc1cc(=O)oc2cc(O)ccc12 | 0 |
| Cc1ccc(-c2nc(C)c(C(=O)Nc3ccc(Cl)cc3)s2)cc1 | 0 |
| O=C(CCC(NC(=O)OCc1ccccc1)C(=O)OCc1ccccc1)Nc1ccc(OCc2ccccc2)cc1 (stereo unspecified) | 0 |
| Fc1cccc(F)c1C(Nc1nncs1)Nc1nncs1 | 0 |
| C/C(=C\c1csc(C)n1)[C@@H]1C[C@@H]2O[C@@H]2CCC[C@H](C)[C@H](O)[C@@H](C)C(=O)C(C)(C)[C@@H](O)CC(=O)O1 | 1 |
| CSC1=N/C(=C\c2ccc(C)cc2)C(=O)N1CN1CCOCC1 | 0 |
| C/C=C/C(O)P1(=O)N(Cc2ccccc2)[C@@H]2CCCC[C@H]2N1Cc1ccccc1 (stereo partly specified) | 0 |
| Nc1ncc(Br)c(NCC2(CO)CCC2)n1 | 0 |

###

Tested on: HCC 2998
measurement-description: NCI tumour cell line growth inhibition, 48 h
The source made the active and inactive calls. No stated cut-off is given here; in the data, active = GI50 up to about 1.1 µM and inactive = higher.
Classes used: Yes = active, No = inactive

| compound | tested-system | class-assignment |
| --- | --- | --- |
| CC[C@@]1(O)C(=O)OCc2c1cc1n(c2=O)Cc2c-1nc1ccccc1c2/C=N\NC(=O)C(N)CCSC (some centres undefined) | HCC 2998 | Yes |
| CC(=O)OCC1OC(c2c(OC(C)=O)cc(C)c3c(=O)cc(/C(C(C)=O)=C(\C)O)oc23)C(OC(C)=O)C(OC(C)=O)C1OC(C)=O (centres undefined) | HCC 2998 | No |
| CC(=O)c1c2c(cc3c1CC1(Cc4ccccc4C1=O)C3)CCC2 (centres undefined) | HCC 2998 | No |
| CC(=O)O[C@@H]1[C@H]2[C@@H](OC(=O)c3ccccc3)[C@@H](C)C[C@]2(O)[C@H](OC(C)=O)[C@@]2(C)[C@@H]3CC(C)(C)C(=O)[C@]3(OC(C)=O)C[C@@]12C | HCC 2998 | No |

###

System: CAKI-1
measurement-description: NCI tumour cell line growth inhibition, 48 h
Activity calls are given as the source filed them. Rule as the data show it: active = GI50 up to about 1.1 µM and inactive = higher.
readout: GI50

| molecule | readout | reported-result |
| --- | --- | --- |
| CCOc1ccc(Nc2nc(C)c(C(=O)/C=C/c3ccc(Cl)cc3Cl)s2)cc1 | GI50 | 27.1 µM (inactive) |
| CC(CN(C)C)C(C#N)(c1ccccc1)c1ccccc1 (centres undefined) | GI50 | > 100 µM (inactive) |
| CC(=O)O[C@@H]1[C@H]2[C@@H](OC(=O)c3ccccc3)[C@@H](C)C[C@]2(O)[C@H](OC(C)=O)[C@@]2(C)[C@@H]3CC(C)(C)C(=O)[C@]3(OC(C)=O)C[C@@]12C | GI50 | 13.4 µM (inactive) |
| COC(=O)C1=C(O)C(C(=O)OC)[C@]2(O)[C@H](C(=O)OC)[C@H]1C[C@@H](c1ccccc1OC)[C@H]2C(=O)OC (some centres undefined) | GI50 | 3.99 µM (inactive) |
| COc1ccc(OC)c2c1CC(C(=O)O)(C(=O)O)CC2=O | GI50 | > 100 µM (inactive) |
| C[N+](C)(C)c1ncnc2c1ncn2C1CCCCO1 (centres undefined) | GI50 | > 100 µM (inactive) |
| CCCCCCN(CCCCCC)C1=CC(=O)C(=O)c2ccccc21 | GI50 | 15 µM (inactive) |
| O=C1CC(n2cccc2)c2c(Br)sc(Br)c21 (centres undefined) | GI50 | 6.49 µM (inactive) |
| O=C(CCC(NC(=O)OCc1ccccc1)C(=O)OCc1ccccc1)Nc1ccc(OCc2ccccc2)cc1 (centres undefined) | GI50 | > 31.6 µM (inactive) |
